Target: EGFR WT (Ba/F3 cells) (Homo sapiens, UniProt P00533)
Sequence (P00533 25-1210): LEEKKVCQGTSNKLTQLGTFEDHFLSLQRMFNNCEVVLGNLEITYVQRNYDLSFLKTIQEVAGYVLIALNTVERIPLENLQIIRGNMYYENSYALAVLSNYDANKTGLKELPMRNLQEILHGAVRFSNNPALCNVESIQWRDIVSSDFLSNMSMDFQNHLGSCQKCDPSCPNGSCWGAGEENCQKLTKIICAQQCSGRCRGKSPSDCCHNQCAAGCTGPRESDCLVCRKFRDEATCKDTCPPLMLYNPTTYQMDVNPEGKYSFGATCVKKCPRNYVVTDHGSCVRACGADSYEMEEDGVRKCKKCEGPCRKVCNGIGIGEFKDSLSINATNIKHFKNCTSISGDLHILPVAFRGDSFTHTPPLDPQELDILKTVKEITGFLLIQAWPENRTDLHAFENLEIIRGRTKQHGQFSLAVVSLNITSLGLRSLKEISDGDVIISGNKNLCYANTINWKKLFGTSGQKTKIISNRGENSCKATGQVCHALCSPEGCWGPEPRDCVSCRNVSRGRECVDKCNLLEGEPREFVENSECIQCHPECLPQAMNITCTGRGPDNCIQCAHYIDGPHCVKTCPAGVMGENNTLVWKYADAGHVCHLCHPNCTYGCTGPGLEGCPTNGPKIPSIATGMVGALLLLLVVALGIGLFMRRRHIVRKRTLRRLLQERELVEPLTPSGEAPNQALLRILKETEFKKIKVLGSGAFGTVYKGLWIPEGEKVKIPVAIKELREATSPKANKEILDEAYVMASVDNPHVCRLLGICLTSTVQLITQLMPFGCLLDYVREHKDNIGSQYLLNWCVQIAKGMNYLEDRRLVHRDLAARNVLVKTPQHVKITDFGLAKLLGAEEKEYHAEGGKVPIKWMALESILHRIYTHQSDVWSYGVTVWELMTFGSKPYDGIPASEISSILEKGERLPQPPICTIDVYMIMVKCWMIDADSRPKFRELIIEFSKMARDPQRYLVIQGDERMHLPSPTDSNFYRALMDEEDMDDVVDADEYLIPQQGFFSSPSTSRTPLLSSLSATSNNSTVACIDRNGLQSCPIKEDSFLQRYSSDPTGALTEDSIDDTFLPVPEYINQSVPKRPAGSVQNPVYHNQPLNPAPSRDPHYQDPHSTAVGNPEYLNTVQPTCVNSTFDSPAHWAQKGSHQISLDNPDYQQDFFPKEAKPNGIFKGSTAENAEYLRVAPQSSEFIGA
Assay: Inhibitor activity on EGFR-dependent cell growth (CellTiter-Glo, 72 h), Ba/F3 EGFR WT
Conditions: read-out: BaF3 WT IC50
measuredAttribute: IC50

See these solved cases before continuing.
compound | IC50
C=CC(=O)NCC[C@@H]1CNC(=O)c2c1[nH]c(-c1ccnc(C)n1)c2Nc1cccc(Cl)c1OC | 0.1 to 1 µM
C=CC(=O)N1CCC2(CC1)CNC(=O)c1c2[nH]c(-c2ccncn2)c1Nc1cccc(Cl)c1OC | < 0.1 µM
COc1c(Cl)cccc1Nc1c(-c2ccnc(Nc3cnn(C)c3)n2)[nH]c2c1C(=O)NCC2 | < 0.1 µM
C=CC(=O)N1CC[C@@]2(CNC(=O)c3c2[nH]c(-c2ccncc2F)c3Nc2cccc(Cl)c2OC)C1 | > 1 µM
COc1c(Cl)cccc1Nc1c(-c2ccnc(Nc3cnn(C4CCOCC4)c3)n2)[nH]c2c1C(=O)NCC2 | 0.1 to 1 µM
COc1c(Cl)cccc1Nc1c(-c2ccncc2F)[nH]c2c1C(=O)NCC2C[C@@H]1CO[C@@H](CN(C)C)CO1 (single isomer, unassigned) [Compound 562] | 0.1 to 1 µM
COCC[C@@H]1CNC(=O)c2c1[nH]c(-c1ccnc(C)n1)c2Nc1cccc(F)c1OC [453a] | > 1 µM
COc1ccc2ncc(F)c(-c3[nH]c4c(c3Nc3cccc(Cl)c3OC)C(=O)NCC4)c2n1 | > 1 µM
C=CC(=O)N1CCC2(CC1)CNC(=O)c1c2[nH]c(-c2ccncc2F)c1Nc1cccc(F)c1CC | < 0.1 µM
COc1c(F)cccc1Nc1c(-c2ccnc(Nc3nnn(C)c3C)n2)[nH]c2c1C(=O)NCC2 | > 1 µM

Return reported IC50; argument: "COc1c(Cl)cccc1Nc1c(-c2ccnc3ccoc23)[nH]c2c1C(=O)NCC2" 0.1 to 1 µM

Return reported IC50; argument: "COc1c(Cl)cccc1Nc1c(-c2ccnc3ccc(OC4COC4)nc23)[nH]c2c1C(=O)NCC21CC1" 0.1 to 1 µM

---

Molecular target: EGFR exon 20 NPG Ins D770_N771 (Ba/F3 cells) (Homo sapiens, UniProt P00533, INS770NPG)
Construct: expressed in transfected cells; host or cells: Ba/F3 (murine pro-B cells), retroviral transduction, puromycin selection, IL3-independent pool
Sequence (P00533 with tags, fused parts or gaps INS770NPG): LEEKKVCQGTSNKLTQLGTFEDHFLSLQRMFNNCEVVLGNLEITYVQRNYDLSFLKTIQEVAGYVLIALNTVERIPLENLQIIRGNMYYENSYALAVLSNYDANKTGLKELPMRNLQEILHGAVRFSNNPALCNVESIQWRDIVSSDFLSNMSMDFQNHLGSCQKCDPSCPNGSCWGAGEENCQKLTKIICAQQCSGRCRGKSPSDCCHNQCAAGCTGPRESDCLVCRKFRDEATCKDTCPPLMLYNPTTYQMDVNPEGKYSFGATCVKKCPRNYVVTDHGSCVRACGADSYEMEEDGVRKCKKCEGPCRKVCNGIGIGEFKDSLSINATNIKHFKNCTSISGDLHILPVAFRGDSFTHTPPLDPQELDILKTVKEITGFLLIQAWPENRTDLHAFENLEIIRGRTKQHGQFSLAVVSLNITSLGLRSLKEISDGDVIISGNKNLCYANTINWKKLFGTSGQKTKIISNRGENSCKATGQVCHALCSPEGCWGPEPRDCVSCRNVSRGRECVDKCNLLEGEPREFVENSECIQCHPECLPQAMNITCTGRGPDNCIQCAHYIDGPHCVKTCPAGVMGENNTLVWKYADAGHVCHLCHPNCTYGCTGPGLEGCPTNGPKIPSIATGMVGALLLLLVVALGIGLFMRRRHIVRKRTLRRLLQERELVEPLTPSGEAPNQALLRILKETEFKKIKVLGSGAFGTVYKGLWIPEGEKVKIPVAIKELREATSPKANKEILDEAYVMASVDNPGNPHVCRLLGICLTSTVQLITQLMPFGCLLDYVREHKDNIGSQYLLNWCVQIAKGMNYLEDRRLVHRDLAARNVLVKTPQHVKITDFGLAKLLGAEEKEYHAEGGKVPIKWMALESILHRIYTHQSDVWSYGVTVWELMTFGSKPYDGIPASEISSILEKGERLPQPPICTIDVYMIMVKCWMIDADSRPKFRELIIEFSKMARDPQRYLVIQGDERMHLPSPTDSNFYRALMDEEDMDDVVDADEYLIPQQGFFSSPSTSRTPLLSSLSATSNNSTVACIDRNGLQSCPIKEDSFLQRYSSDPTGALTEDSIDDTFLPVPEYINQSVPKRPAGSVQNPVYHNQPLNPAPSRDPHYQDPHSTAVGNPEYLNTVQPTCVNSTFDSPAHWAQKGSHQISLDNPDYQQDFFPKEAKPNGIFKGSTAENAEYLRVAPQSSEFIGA
Experiment: Inhibitor activity on EGFR-dependent cell growth (CellTiter-Glo, 72 h), Ba/F3 EGFR exon 20 NPG Ins
Assay type: cell-based
Conditions: read-out: BaF3 NPG IC50
pIC50: −log10 of the molar value.
measuredAttribute: pIC50

Return reported pIC50; argument: COc1c(Cl)cccc1Nc1c(-c2ccncc2)[nH]c2c1C(=O)NCC2C[C@@H]1CN(C)CCO1 (single isomer, unassigned) < 6.00

Return reported pIC50; argument: "C=CC(=O)NCC[C@@H]1CNC(=O)c2c1[nH]c(-c1ccnc(C)n1)c2Nc1cccc(Cl)c1OC" > 7.00

Return reported pIC50; argument: "COc1c(Cl)cccc1Nc1c(-c2ccnc(-c3cnn(C)c3)n2)[nH]c2c1C(=O)NCC2" > 7.00

---

Target: EGFR exon 20 NPG Ins D770_N771 (Ba/F3 cells) (Homo sapiens, UniProt P00533, INS770NPG)
Construct: expressed in transfected cells; host or cells: Ba/F3 (murine pro-B cells), retroviral transduction, puromycin selection, IL3-independent pool
Test: Inhibitor activity on EGFR-dependent cell growth (CellTiter-Glo, 72 h), Ba/F3 EGFR exon 20 NPG Ins
Type: cell-based
Conditions: read-out: BaF3 NPG IC50
Listed here: items and their measured IC50.

See these solved cases before continuing.
molecule | IC50
COc1c(Cl)cccc1Nc1c(-c2ccncc2F)[nH]c2c1C(=O)NCC21CCN(C(=O)/C=C/CN(C)C)CC1 [Compound 522] | 100 to 1000 nM
COc1c(Cl)cccc1Nc1c(-c2ccncc2F)[nH]c2c1C(=O)NC[C@H]2CC1COCCO1 (stereo in doubt) [Compound 480] | < 100 nM
CC[C@@H]1CNC(=O)c2c1[nH]c(-c1ccnc(N)n1)c2Nc1cccc(Cl)c1OC [189a] | < 100 nM
COc1c(F)cccc1Nc1c(-c2ccnc(C)n2)[nH]c2c1C(=O)NCC21CCN(C(=O)/C=C/CN(C)C)CC1 [compound 649] | 100 to 1000 nM

Please turn your attention to the following entry.
Return reported IC50; argument: C=CC(=O)N1CCC2(CC1)CNC(=O)c1c2[nH]c(-c2ccnc(C)n2)c1Nc1cc(F)cc(Cl)c1OC [compound 642] < 100 nM
